assay: activity coefficient (dimensionless); of the first substance listed, at infinite dilution; xn = mol fraction of the nth substance listed; details: 313.15 K; 100 kPa; Liquid; Chromatography; x1 = 0
Assay Metric: activity coefficient
I'd appreciate a reply containing only the number, no unit.

Provide one value: measured activity coefficient of C1CCCCCC1 [cycloheptane] + CCn1cc[n+](C)c1.COCCOCCOS(=O)(=O)[O-] 58.7

Provide one value: measured activity coefficient of CCCCCCC [heptane] + CCn1cc[n+](C)c1.COCCOCCOS(=O)(=O)[O-] 158

Provide one value: measured activity coefficient of C#CCCCCCCC [1-nonyne] + CCn1cc[n+](C)c1.COCCOCCOS(=O)(=O)[O-] 24.7

Provide one value: measured activity coefficient of Cc1ccccc1 [toluene] + CCn1cc[n+](C)c1.COCCOCCOS(=O)(=O)[O-] 4.45

Provide one value: measured activity coefficient of CCCCCCCCC [nonane] + CCn1cc[n+](C)c1.COCCOCCOS(=O)(=O)[O-] 303

Provide one value: measured activity coefficient of C#CCCC [1-pentyne] + CCn1cc[n+](C)c1.COCCOCCOS(=O)(=O)[O-] 3.74

Provide one value: measured activity coefficient of CCC(C)=O [butanone] + CCn1cc[n+](C)c1.COCCOCCOS(=O)(=O)[O-] 2.34

Provide one value: measured activity coefficient of C=CCCC [1-pentene] + CCn1cc[n+](C)c1.COCCOCCOS(=O)(=O)[O-] 26.5

Provide one value: measured activity coefficient of C=CCCCCCC [oct-1-ene] + CCn1cc[n+](C)c1.COCCOCCOS(=O)(=O)[O-] 113
